Tested on: MCF7 breast
method: NCI tumour cell line growth inhibition, 48 h
Tick met if TGI is 5 µM or greater. Tick not met if TGI is less than 5 µM.

Example entries and their recorded answers appear below.
molecule: C=CCOCn1cnc2c(N)ncnc21
discrete label: met
--
molecule: COc1cc(OC)c2c(O)c3c(cc2c1)CC(C)(C)CC3=O
discrete label: met
--
molecule: Nc1ccc2c(c1)NCCN2
discrete label: met
--
molecule: NNc1cccc(/C=C/c2ccccc2)cc1=O
discrete label: met
--
molecule: Cn1c(=O)c(Oc2ccccc2F)cc2cnc(NC3CCOCC3)nc21
discrete label: met
--
molecule: COc1ccc2c(Nc3ccc(NS(C)(=O)=O)cc3)c3ccccc3nc2c1
discrete label: not met
--
molecule: CN(C)c1ccc(/C=C2\N=C(NN)NC2=O)cc1
discrete label: met
--
molecule: COc1cccc(-c2ccc3c4c2O[C@H]2c5[nH]c6ccccc6c5C[C@@]5(O)[C@@H](C3)N(CC3CC3)CC[C@]425)c1
discrete label: not met

Input line: Given CC(C)[C@@H]1CC[C@@H](C)C[C@H]1OC(=O)/C=C1/C2C=CC(O2)C1C(=O)O[C@@H]1C[C@H](C)CC[C@H]1C(C)C (stereo partly drawn) , state whether its TGI is at least 5 µM.
Output line: met

Input line: Given Nc1nnc2cc(Cl)ccc2n1 , state whether its TGI is at least 5 µM.
Output line: met

Input line: Given C=C1C(=O)O[C@H]2[C@H]1CC/C(COC(=O)NCc1ccc(Cn3c(=O)sn(CCCCl)c3=O)cc1)=C\CC[C@@]1(C)O[C@@H]21 , state whether its TGI is at least 5 µM.
Output line: not met

Input line: Given O=C(Nc1ccc(Cl)cc1)c1ccc(NC2=C(Cl)C(=O)N(Cc3ccccc3)C2=O)cc1 , state whether its TGI is at least 5 µM.
Output line: met

Input line: Given Cc1c(C(=O)N2CCN(c3ccc([N+](=O)[O-])cc3)CC2)[n+](=O)c2cc(Cl)c(Cl)cc2n1[O-] , state whether its TGI is at least 5 µM.
Output line: met

Input line: Given CCOC(=O)c1c(Br)c(-c2ccc(Br)cc2)c(Br)n1C , state whether its TGI is at least 5 µM.
Output line: met

Input line: Given Clc1ccc2sc(-n3ccc4ccccc43)nc2c1 , state whether its TGI is at least 5 µM.
Output line: met

Input line: Given O=C(NCCCNc1cc(-c2cn(-c3ccccc3)nc2-c2cccc(O)c2)ccn1)c1ccccc1 , state whether its TGI is at least 5 µM.
Output line: met

Input line: Given COc1ccc2cc1Oc1ccc(cc1)C(Sc1ccccc1)CCOC(=O)CC2 (stereo not drawn) , state whether its TGI is at least 5 µM.
Output line: met
